Subject of test: T1, RSV F glycoprotein (NUF4) (respiratory syncytial virus)
T1 chain 1: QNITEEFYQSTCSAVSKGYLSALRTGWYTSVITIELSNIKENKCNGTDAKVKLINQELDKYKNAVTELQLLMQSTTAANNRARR
T1 chain 2: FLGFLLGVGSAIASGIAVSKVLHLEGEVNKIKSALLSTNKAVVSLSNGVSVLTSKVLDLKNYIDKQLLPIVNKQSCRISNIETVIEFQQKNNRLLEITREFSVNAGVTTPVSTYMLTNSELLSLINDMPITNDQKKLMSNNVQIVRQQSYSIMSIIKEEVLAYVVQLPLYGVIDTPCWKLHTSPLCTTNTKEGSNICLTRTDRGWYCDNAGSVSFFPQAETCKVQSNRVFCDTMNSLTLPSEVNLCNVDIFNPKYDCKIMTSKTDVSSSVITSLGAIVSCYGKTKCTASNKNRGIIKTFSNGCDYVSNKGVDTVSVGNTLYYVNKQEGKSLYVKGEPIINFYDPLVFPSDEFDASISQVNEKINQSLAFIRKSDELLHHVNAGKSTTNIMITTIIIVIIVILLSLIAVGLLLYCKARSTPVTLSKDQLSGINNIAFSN
Assay remarks: SPR (BIAcore), mAb vs NUF4 (2:1)
Measurement label: fold in parentheses (palivizumab = 1) (fold)
# unit: fold | format: bare number

Just so you know, measured fold in parentheses (palivizumab = 1) for A12a6 IgG (antibody, V domains shown) VH: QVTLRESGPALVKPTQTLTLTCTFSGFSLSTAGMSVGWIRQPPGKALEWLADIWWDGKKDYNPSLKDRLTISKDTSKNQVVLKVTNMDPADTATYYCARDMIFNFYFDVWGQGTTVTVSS VL: DIQMTQSPSTLSASVGDRVTITCSASSRVGYMHWYQQKPGKAPKLLIYDTFKLSSGVPSRFSGSGSGTEFTLTISSLQPDDFATYYCFQGSGYPFTFGGGTKVEIKR came out at 167

Just so you know, measured fold in parentheses (palivizumab = 1) for A1e9 IgG (antibody, V domains shown, also called Ale9) VH: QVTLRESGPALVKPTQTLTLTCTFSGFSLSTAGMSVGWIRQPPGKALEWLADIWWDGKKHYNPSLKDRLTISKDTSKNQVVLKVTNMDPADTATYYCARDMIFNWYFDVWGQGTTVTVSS VL: DIQMTQSPSTLSASVGDRVTITCSLSSRVGYMHWYQQKPGKAPKLLIYDTFKLSSGVPSRFSGSGSGTEFTLTISSLQPDDFATYYCFQGSGYPFTFGGGTKVEIKR came out at 74

Just so you know, measured fold in parentheses (palivizumab = 1) for A8c7 IgG (antibody, V domains shown) VH: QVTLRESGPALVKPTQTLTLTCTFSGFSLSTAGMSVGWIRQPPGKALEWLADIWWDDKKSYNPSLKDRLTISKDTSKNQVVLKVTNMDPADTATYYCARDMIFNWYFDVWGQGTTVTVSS VL: DIQMTQSPSTLSASVGDRVTITCSPSSRVGYMHWYQQKPGKAPKLLIYDTRYQSSGVPSRFSGSGSGTEFTLTISSLQPDDFATYYCFQGSGYPFTFGGGTKVEIKR came out at 118

Entry source: patent US20110158985A1
